experiment: yeast display, Sf9 membrane polyspecificity reagent, FACS + sequencing; frameworks hold sequencing errors

record-sequence	polyreactivity (PSR sort gate)
QVQLEESGGGLVQAGGSLRLSCAASGIIFYRSVMGWYRQAPGKERELVAAITGGGSTYYADSVKGRFTISRDNAKNTVYLQMNSLKPEDTAVYYCNADIRAYTVLTGGYIYDYWGQVTQVTVSS	high polyreactivity
QVQLVESGGGLVQAGGSLRLSCAASGFIFTRNAMGLYRQAPGTERELVAVISYGGGSTYYADSVKGRFTISRDNAKNTVYLQMNSLKPEDTAVYYCAADQNWRYYYHYTYYYWGQGTQVTVSS	high polyreactivity
QVQLVESGGGLVQAGGSLRLSCAASGGIFPFYAMGWYRQAPGKERELVAAISGIGDSTYYADSVKGRFTISRDNAKNTVYLQMNSLKPEDTAVYYCAREFSDGLSGKFDYWGQGTQVTVSS	low polyreactivity
QVHLVQSGGGLVQAGGSLRISSAASGSTFSPYDMGRYRQAPGKEREMVAGITDGAITTYADSVKGSFTISRDNANNTVYLQMNSLKPEDTEVYYCAAFLWAKYHPGYYYWGQGTQETVSS	low polyreactivity
QVQLVESGGGLVQAGGSLRLSCAASGSTFTRYAMGWYRQAPGKERELVAAISGGGSTNYADSVKGRFTISRDNSKNTVYLQMNSLKPEDTAVYYCAARVRTTGYSQMYYWGQGTQVTVSS	low polyreactivity
QDQLVESGGGLVQAGGSLRLICAASGLTFKVYAMGWYRQAPGKERELVAAISWSGGSTYYADSVKGRFTISRDNAKNTVYLQMNSLKPEDTAVYYCAVEASYYVVFFPYEYWGQGTQVTVSS	low polyreactivity

* * *

assay: yeast display, Sf9 membrane polyspecificity reagent, FACS + sequencing; frameworks hold sequencing errors

record-sequence	polyreactivity (PSR sort gate)
VQLVESGGGLVQAGVSLRLSCAASGSTFRPYAMGWYRQAPGKERELVAAITGSGGSTYYADSVKGRFTISRDNAKNTVYLQMNSLKPEDTAVYYCNAVSTWRYYYWGQGTQVTVSS	high polyreactivity
QVQLVESGGGLVQAGGSLRLSCAASGSTFYYYAMGWYRQAPGKEREFVASISSRGTSTYYADSVKGRFTISRDHAKNTVYLQMNSMKPEDTAVYYCAARGWGPTRAYDYWGQGTQVTVSS	high polyreactivity
HVQLVESGGGLVQAGGSLRLSCAASGRIFFRYAMGWYRQAPGKERELVAAISYSGGSTYYADSVKGRFTISRDNAKNTVYLQMNSLKPEDTAVYYCAAPLLRDLRSPYSYNYWGQGTQVTVSS	low polyreactivity
QVQLVESGGGLVQAGGSLRLSCAASGFTFIRYAMGWYRQAPGKERELVATITRRGGSTYYADSVKGRFTISRDNAKNTVYLQMNSLKPEDTAVYYCNRDYVTYGKYYYWGQGTQVTVSS	high polyreactivity
QVQLVESGAGLVQAGGSLRLSCAASGSTFSRYAMGWYRQAPGKERELVAAISRRGGSTYYSDSVKGRFTISRDNSKNTVYLQKISLKPEDTAVYYCAADPQPSSDRGTYDYWGQGTQVSVSS	high polyreactivity
QFQLEESGGGLVQAGGSLRLSCAASGFTFFTYAMGWYRQAPGKERELVAAITTGGSTNYADSVKGRFTISRDNAKNTVYLQMNSLKPEDTAVYYCAVYGYVYGSAVQYDYWGQGTQVTVSS	low polyreactivity
QVQLVESGGGLVQAGGSLRLSCAASGSTFDGYAMGWYRQAPGKERELVAAITSSSTSTYYADSVKGRFTISRDNAKNTVYLQMYSLKPEDTAVYYCAAQYFSYISVYSFYTMGYWGQGTQVTVSS	low polyreactivity

Origin of the recorded values: the nanobody polyreactivity screen of Harvey et al. (2022)
